Quick reference for IC50 among some molecules
- assayed.target: CSK (Homo sapiens, UniProt P41240)
- Sequence (P41240 whole entry): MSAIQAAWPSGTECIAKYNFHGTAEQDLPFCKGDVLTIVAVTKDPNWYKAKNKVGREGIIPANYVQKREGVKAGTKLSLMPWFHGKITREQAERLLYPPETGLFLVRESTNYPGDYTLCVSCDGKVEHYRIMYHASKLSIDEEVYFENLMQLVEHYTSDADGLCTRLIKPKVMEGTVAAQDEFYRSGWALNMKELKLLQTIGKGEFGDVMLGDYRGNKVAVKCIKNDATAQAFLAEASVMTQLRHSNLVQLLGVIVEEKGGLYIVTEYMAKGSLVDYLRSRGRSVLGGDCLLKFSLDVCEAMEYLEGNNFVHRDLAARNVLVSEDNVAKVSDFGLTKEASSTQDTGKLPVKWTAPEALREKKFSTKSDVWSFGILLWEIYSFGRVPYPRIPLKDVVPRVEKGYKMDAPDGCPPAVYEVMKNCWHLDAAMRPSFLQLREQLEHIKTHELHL

smiles.entry: CN(C/C=C/C(=O)N1CC[C@@H](n2nc(-c3ccc(F)cc3)c3c(N)ncnc32)C1)C1CCC1
endpoint.name: IC50
experimental.result: > 1000 nM

smiles.entry: CN(C/C=C/C(=O)N1CC[C@@H](n2nc(-c3ccc(Cl)cc3)c3c(N)ncnc32)C1)C1CCC1
endpoint.name: IC50
experimental.result: > 1000 nM

smiles.entry: COc1cc(-c2nn(-c3cccc(N(C)C(=O)/C=C/CN(C)C4CCC4)c3)c3ncnc(N)c23)ccc1C
endpoint.name: IC50
experimental.result: > 1000 nM

smiles.entry: Cc1ccc(-c2nn([C@@H]3CCN(C(=O)/C=C/CN(C)C4CCC4)C3)c3ncnc(N)c23)cc1
endpoint.name: IC50
experimental.result: > 1000 nM

smiles.entry: COc1cc(-c2nn([C@@H]3CCN(C(=O)/C=C/CN(C)C)C3)c3ncnc(N)c23)ccc1C
endpoint.name: IC50
experimental.result: 100 to 1000 nM

Tested on CSK (Homo sapiens, UniProt P41240): COc1cc(-c2nn(-c3ccc(NC(=O)/C=C/CN(C)C)cc3)c3ncnc(N)c23)ccc1C . Observed IC50: < 100 nM

Where do these numbers come from? They come from patent US9546172B2.
